All values here come from patent US20130244929A1.

- System: MB 5393 (COL), a methicillin-resistant S. aureus strain
- METHOD_NOTES: Determination of minimum and synergistic inhibitory concentration
- Format: cell-based
- ASSAY_CONDITIONS: MRSA COL, presence of imipenem (4 μg/mL), 22 hours
TEST_READOUT: SIC

Examples with their reported SIC follow.
COMPOUND: CCCCCCCCCc1ccc(-c2ccc(C(=O)NCCC(=O)N3C[C@H](N)C[C@H]3C(=O)N(C)[C@@H]3C(=O)N[C@@H](C)C(=O)N[C@H](C(=O)O)Cc4ccc(O)c(c4)-c4cc3ccc4O)cc2)cc1
TEST_READOUT: SIC
EXPERIMENTAL_RESULT: G (G: SIC <0.0625)
//
COMPOUND: CCCCCCCCCc1ccc(-c2ccc(C(=O)NCCC(=O)N3CCC[C@H]3C(=O)N(C)[C@@H]3C(=O)N[C@@H](C)C(=O)N[C@H](C(=O)O)Cc4ccc(O)c(c4)-c4cc3ccc4O)cc2)cc1
TEST_READOUT: SIC
EXPERIMENTAL_RESULT: H (H: SIC 0.062-1)
//
COMPOUND: CCCCCCCc1ccc2cc(C(=O)NCCC(=O)N[C@@H](CCCCN)C(=O)N(C)[C@@H]3C(=O)N[C@@H](C)C(=O)N[C@H](C(=O)O)Cc4ccc(O)c(c4)-c4cc3ccc4O)cnc2c1
TEST_READOUT: SIC
EXPERIMENTAL_RESULT: H (H: SIC 0.062-1)
//
COMPOUND: CCCc1ccc(-c2ccc(C(=O)NCCC(=O)NC(CCCCN)C(=O)N(C)[C@@H]3C(=O)N[C@@H](C)C(=O)N[C@H](C(=O)O)Cc4ccc(O)c(c4)-c4cc3ccc4O)cc2)cc1.O=C(O)C(F)(F)F (stereo partly drawn)
TEST_READOUT: SIC
EXPERIMENTAL_RESULT: H (H: SIC 0.062-1)
//
COMPOUND: CCCc1ccc(-c2ccc(C(=O)NCCC(=O)NC(CCCCN)C(=O)N(C)[C@@H]3C(=O)N[C@@H](C)C(=O)N[C@H](C(=O)O)Cc4cccc(c4)-c4cccc3c4)cc2)cc1.O=C(O)C(F)(F)F (stereo partly drawn)
TEST_READOUT: SIC
EXPERIMENTAL_RESULT: H (H: SIC 0.062-1)
//
COMPOUND: CC(c1ccc(-c2ccc(C(=O)NCCC(=O)N[C@@H](CCCCN)C(=O)N(C)[C@@H]3C(=O)N[C@@H](C)C(=O)N[C@H](C(=O)O)Cc4ccc(O)c(c4)-c4cc3ccc4O)cc2)cc1)C12CC3CC(CC(C3)C1)C2 (stereo partly drawn)
TEST_READOUT: SIC
EXPERIMENTAL_RESULT: G (G: SIC <0.0625)
//
COMPOUND: CCCc1ccc(-c2ccc(C(=O)NCCC(=O)N(CCCCN)CC(=O)N(C)[C@@H]3C(=O)N[C@@H](C)C(=O)N[C@H](C(=O)O)Cc4ccc(OC)c(c4)-c4cc3ccc4OC)cc2)cc1.O=C(O)C(F)(F)F
TEST_READOUT: SIC
EXPERIMENTAL_RESULT: H (H: SIC 0.062-1)
//
COMPOUND: CCCCCCCCCc1ccc(-c2ccc(C(=O)NCCC(=O)N3CC[C@H]3C(=O)N(C)[C@@H]3C(=O)N[C@@H](C)C(=O)N[C@H](C(=O)O)Cc4ccc(O)c(c4)-c4cc3ccc4O)cc2)cc1
TEST_READOUT: SIC
EXPERIMENTAL_RESULT: G (G: SIC <0.0625)

Next compound, SIC to be filled in.
Ask | // lookup SIC for `C[C@@H]1NC(=O)[C@@H](N(C)C(=O)[C@H](CCCCN)NC(=O)CCNC(=O)c2ccc(CCCCCCCCc3ccccc3)cc2)c2ccc(O)c(c2)-c2cc(ccc2O)C[C@@H](C(=O)O)NC1=O.O=C(O)C(F)(F)F`
Reply | G (G: SIC <0.0625)
